- assay.system: Rap guanine nucleotide exchange factor 3 (Homo sapiens) (UniProt O95398)
- method.description: Counterscreen qHTS for agonist of cAMP-regulated guanine nucleotide exchange factor 3 (EPAC1) (AID 1645889); further: % of control where 0% means no effect; nearly all actives have a fitted effect of over 40% in size
- condition.label: EPAC1 Rap1B-BODIPY-GDP exchange, fluorescence; series mostly up to 154 µM
Inconclusive results are not listed. Calls of active or inactive are those of the source. The call rests on the fitted dose curve; in most records, active means well fitted activation curve with a large enough effect; inconclusive means small, poorly fitted or top-dose-only effect, or another doubt; inactive means no such curve, though single readings can be large or run the other way.
outcome.measure: activation

>>> result("COC1=C(Nc2ccc(O)cc2)C(=O)c2ccccc2C1=O")
"25.2% [at 30.8 µM] (inactive)"
>>> result("Cc1cc(C)n(Cc2ccc(C(=O)N/N=C/c3ccc(-c4ccc([N+](=O)[O-])cc4)o3)o2)n1")
"inactive"
>>> result("NS(=O)(=O)c1ccc(N/N=C/c2ccccc2C(=O)O)c([N+](=O)[O-])c1")
"inactive"
>>> result("CCCCCC(=O)Nc1cccc(C2=NOC3(C2)C[C@@H](C(N)=O)N(C(=O)CC(c2ccccc2)c2ccccc2)C3)c1 (stereo not given in full)")
"34.5% [at 30.8 µM] (inactive)"
>>> result("O=C(CN1CCCCC1)Nc1cc(Cl)ccc1Oc1ccccc1")
"inactive"
>>> result("CCOC(=O)c1c(NC(=O)c2ccc(S(=O)(=O)N(C)CC3CCCO3)cc2)sc2c1CCN(C)C2 (stereo not given)")
"inactive"
>>> result("CCOC(=O)c1c(NC(=O)c2ccccc2OCC)sc2c1CCC(CC)C2 (stereo not given)")
"inactive"
>>> result("CCCCOc1ccc(C(=O)N/N=C/c2cn[nH]c2-c2ccc(OC)c(OC)c2)cc1")
"inactive"
>>> result("O=C(NNc1cc(Br)c(O)c(Br)c1)c1ccccc1")
"11.6% [at 30.8 µM] (inactive)"
>>> result("COc1ccc(N(C(=O)c2snc(C(N)=O)c2N)C(C(=O)NC2CCCC2)c2cccs2)cc1OC (stereo not given)")
"inactive"

State the recorded activation for this entry: COc1ccc(N2C(=O)CSC23C(=O)N(Cc2cccc(C(F)(F)F)c2)c2ccccc23)cc1 (stereo not given)
inactive

State the recorded activation for this entry: "CCCCn1c(N)c(N(CCC(C)C)C(=O)c2ccc(COc3ccccc3)o2)c(=O)[nH]c1=O"
7.33% [at 30.8 µM] (inactive)

State the recorded activation for this entry: "COCCn1c(SCC(=O)c2c(C)[nH]c3ccccc23)nc2cc(C(=O)NC(C)C)ccc2c1=O"
inactive

State the recorded activation for this entry: "Cc1ccc(C(=O)OCC(=O)c2ccc(CC(=O)N3CCOCC3)s2)c(C)c1"
inactive

State the recorded activation for this entry: COc1cccc(C2=NN(C(=O)c3ccco3)C(c3ccco3)C2)c1 (stereo not given)
inactive

* * *

- assay.system: Guanidinoacetate N-methyltransferase (Homo sapiens)
- method.description: Confirmatory Screen for Target Class Profiling of Small Molecule Inhibitors of Methyltransferases (AID 1745852); further: on the % scale 0 is the no-effect control and ±100 the full control effect
- condition.label: MTase-Glo luminescence, SAH detection, recombinant enzyme; at 57.3 µM (top of the series) unless noted
outcome.measure: activity change, negative = inhibition (%)
Give the quantity in %, number only.

>>> result_number("CCOC(=O)c1ccc(NC(=O)Cn2c(=O)oc3cc(S(=O)(=O)N4CCCC4)ccc32)cc1")
-4.51
>>> result_number("O=C(CCc1nnc2n(CCc3ccccc3)c(=O)c3ccccc3n12)N1CCN(c2ccccc2)CC1")
0
>>> result_number("COc1cccc(-c2ccccc2NC(=O)C2CCN(CC=C(C)C)CC2)c1")
3.69
>>> result_number("CCN(CCc1nc2ccc(C)cc2[nH]1)C(=O)c1ccccc1C1CCNC1 (stereo unspecified)")
8.24
>>> result_number("CCCCNC(=O)c1cccc(-c2cc(N3CCN(C)CC3)nc(N)n2)c1")
-5.28
>>> result_number("CC(CNC(=O)CCc1nnc2n(Cc3ccc(F)cc3)c(=O)c3ccccc3n12)c1ccccc1 (stereo unspecified)")
-2.31

GET /values?readout=activity change, negative = inhibition&system=Guanidinoacetate N-methyltransferase (Homo sapiens)&item= "C[C@H]1CN(C(=O)c2nn(C)c3ccccc23)C[C@@H]1c1nc(-c2cccnc2)no1"
7.54

GET /values?readout=activity change, negative = inhibition&system=Guanidinoacetate N-methyltransferase (Homo sapiens)&item= "Cc1cc(NS(=O)(=O)c2ccc3[nH]c(=O)[nH]c3c2)ccc1Br"
0.289

GET /values?readout=activity change, negative = inhibition&system=Guanidinoacetate N-methyltransferase (Homo sapiens)&item= "COc1ncccc1-c1cc2c(ccn2CC2CCN([S+](C)(=O)[O-])CC2)c(N2CCOCC2)n1"
1.38

GET /values?readout=activity change, negative = inhibition&system=Guanidinoacetate N-methyltransferase (Homo sapiens)&item= "Cn1cc2c3c(cccc31)CN(C(=O)c1ccccc1F)CC2"
8.53

GET /values?readout=activity change, negative = inhibition&system=Guanidinoacetate N-methyltransferase (Homo sapiens)&item= "COCc1cc(NCCCNc2cccnc2)ncn1"
-12.2
